Test system: IFNγ
Test: Cytokine assay: IFNγ release from PHA-L stimulated human PBMCs
Type: cell-based
Details: Homo sapiens, PBMC
Property measured: IC50 (nM)

A. COc1cnc(-c2cccc(C3COB(O)C3)c2)nc1OC (stereo not drawn) [Example 122]
B. COc1cnc(-c2cccc(C3COB(O)C3)c2)nc1OC (single isomer, unassigned) [Example 123]
C. COc1ccc(-c2cccc(C3COB(O)C3)c2)cc1OC (stereo not drawn)
Incoming: Parameters: sort_field (IC50), sort_dir (desc). Output spec: a listing of the labels in the requested order.
Outgoing: C, A, B

* * *

Tested on: IL-13
Assay: Cytokine assay: IL-13 release from PHA-L stimulated human PBMCs
Format: cell-based
Settings: Homo sapiens, PBMC, read-out: IL13 IC50
Property measured: IC50 (nM)

| Molecule | Experimental target | Unit symbol | IC50 |
| --- | --- | --- | --- |
| CCCOc1c(OC)ccc(-c2cncc(C3COB(O)C3)n2)c1F (single isomer, unassigned; enantiomer 1) [Example 216] | IL-13 | nM | 2860 |

A. CCCOc1cc(-c2cncc([C@@H]3COB(O)C3)c2)ccc1OC
B. CCOc1cc(-c2nc(C3COB(O)C3)cs2)c(F)cc1OC (single isomer, unassigned) [Example 92]
C. COc1ccc(-c2cncc(C3COB(O)C3)c2)cc1OC1CCSCC1 (stereo not shown) [Example 169]
Incoming: Order field: IC50 | Direction: descending (largest first) Output spec: a listing of the labels in the requested order.
Outgoing: C, B, A
(C: 2020 nM, B: 947 nM, A: 135 nM)

* * *

Tested on: IL-13
Test: Cytokine assay: IL-13 release from PHA-L stimulated human PBMCs
Type: cell-based
Details: Homo sapiens, PBMC, read-out: IL13 IC50
Property measured: IC50 (nM)

Please review the following examples before continuing.
| Compound | Result |
| --- | --- |
| CCCOc1nc(-c2cccc(C3=CB(O)OC3)c2)ccc1OC | 2600 |
| CCOc1c(OC)ccc(-c2cccc(C3COB(O)C3)c2)c1C#N (single isomer, unassigned; enantiomer 2) [Example 192] | 1500 |
| COc1cc(-c2ccc(OC)c(OC3CCCC3)c2)nc(C2COB(O)C2)n1 (single isomer, unassigned; enantiomer 2) [Example 176] | 1140 |
| CCCOc1c(OC)ccc(-c2cccc(C3COB(O)C3)n2)c1F (centres unmarked) | 1980 |
| CCOc1cc(-c2nc(C3COB(O)C3)cs2)ccc1OC (single isomer, unassigned; enantiomer 1) [Example 194] | 1540 |

P. CCOc1cc(-c2nc(C3COB(O)C3)ns2)ccc1OC (centres unmarked)
Q. CCOc1ccc(-c2cncc(C3COB(O)C3)c2)cc1OCC (centres unmarked)
Incoming: Response body: label of entry with the larger IC50; valid values P , Q . # respond with the chosen item's label
Outgoing: Q
(Q: 965 nM, P: 375 nM)

* * *

Biological target: PDE4B (aa 152-484, Uniprot ID Q07343) (Homo sapiens (Human), UniProt Q07343)
Sequence (Q07343 324-656): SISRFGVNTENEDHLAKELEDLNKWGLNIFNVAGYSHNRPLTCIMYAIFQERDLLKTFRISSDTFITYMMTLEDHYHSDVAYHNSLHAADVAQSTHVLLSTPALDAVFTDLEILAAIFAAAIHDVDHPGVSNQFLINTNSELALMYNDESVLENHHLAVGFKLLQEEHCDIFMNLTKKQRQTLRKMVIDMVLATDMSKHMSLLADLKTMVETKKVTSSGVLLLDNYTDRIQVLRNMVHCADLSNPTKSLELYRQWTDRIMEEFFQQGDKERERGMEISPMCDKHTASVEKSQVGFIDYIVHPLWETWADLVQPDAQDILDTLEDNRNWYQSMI
Property measured: IC50 (nM)

Please review the following examples before continuing.
| Compound | Unit symbol | Result |
| --- | --- | --- |
| CCOc1cc(-c2cncc(C3COB(O)C3)c2C)ccc1OC (single isomer, unassigned) [Example 21] | nM | 0.64 |
| CCOc1c(OC)ccc(-c2cccc(C3COB(O)C3)c2)c1F (centres unmarked) | nM | 0.97 |
| CCCOc1cc(-c2cc(C3COB(O)C3)cnc2C)cnc1OC (single isomer, unassigned; enantiomer 1) [Example 219] | nM | 0.82 |
| COc1ccc(-c2cncc(C3COB(O)C3)c2)cc1OCCF (centres unmarked) | nM | 1.63 |
| CCOc1c(OC)ccc(-c2cccc(C3COB(O)C3)n2)c1C#N (centres unmarked) | nM | 5.98 |

A. COc1ccc(-c2cccc(C3COB(O)C3)c2)cc1OC(C)C (centres unmarked)
B. CCOc1cc(-c2cncc(C3COB(O)C3)n2)ccc1OC (single isomer, unassigned) [Example 24]
Incoming: Response body: label of entry with the larger IC50; valid values A , B . # respond with the chosen item's label
Outgoing: A

1. CCCOc1cc(-c2cncc(C3COB(O)C3)c2)ccc1OCC (centres unmarked)
2. CCOc1c(OC)ccc(-c2cccc(C3COB(O)C3)n2)c1F (centres unmarked)
3. CCCOc1nc(-c2cncc(C3COB(O)C3)c2)ccc1OC (single isomer, unassigned) [Example 62]
Incoming: Order field: IC50 | Direction: descending (largest first) Output spec: a listing of the labels in the requested order.
Outgoing: 2, 1, 3

P. COc1ccc(-c2cncc(C3COB(O)C3)c2)cc1OC (centres unmarked) [Example 32]
Q. CCCOc1c(OC)ccc(-c2cccc(C3COB(O)C3)n2)c1C#N (single isomer, unassigned)
Incoming: Response body: label of entry with the larger IC50; valid values P , Q . # respond with the chosen item's label
Outgoing: P
(P: 13 nM, Q: 5.03 nM)

* * *

Test system: IFNγ
Experiment: Cytokine assay: IFNγ release from PHA-L stimulated human PBMCs
Assay type: cell-based
Details: Homo sapiens, PBMC
pIC50: −log10 of the molar value.
Property measured: pIC50

| Compound | pIC50 |
| --- | --- |
| CCOc1cc(-c2cc(C3COB(O)C3)cnc2CC)ccc1OC (stereo not shown) [Example 171] | 8.49 |
| COc1ccc(-c2cccc(C3COB(O)C3)c2)cc1OCCF (stereo not shown) [Example 63] | 8.56 |

a. CCCOc1cc(-c2cncc(C3COB(O)C3)c2C)ccc1OC (stereo not shown) [Example 84]
b. CCOc1cc(-c2nc(OC)cc(C3COB(O)C3)n2)ccc1OC (stereo not shown) [Example 185]
c. COc1ccc(-c2cccc(C3COB(O)C3)c2)nc1OC (stereo not shown) [Example 152]
d. CCOc1cc(-c2cncc(C3COB(O)C3)c2C)c(F)cc1OC (stereo not shown) [Example 141]
Incoming: Order field: pIC50 | Direction: descending (largest first) Output spec: a listing of the labels in the requested order.
Outgoing: a, b, d, c

I. COc1ccc(-c2cncc(C3COB(O)C3)c2)cc1OC (stereo not shown) [Example 32]
II. CCOc1cc(-c2cncc(C3COB(O)C3)c2)cc(F)c1OC (stereo not shown) [Example 44]
III. COc1ccc(-c2cncc(C3COB(O)C3)c2)cc1OC1CCSCC1 (single isomer, unassigned; enantiomer 1) [Example 170]
IV. CCCOc1cc(-c2cccc(C3(C)COB(O)C3)n2)ccc1OC (stereo not shown) [Example 29]
Incoming: // smallest pIC50 at index 0, largest at the end Output spec: a listing of the labels in the requested order.
Outgoing: I, IV, III, II
(I: 8.07, IV: 8.32, III: 8.55, II: 8.87)

I. CCCOc1nc(-c2cncc(C3COB(O)C3)c2)c(F)cc1OC (stereo not shown) [Example 48]
II. CCOc1cc(-c2nc(C3COB(O)C3)cs2)c(F)cc1OC (stereo not shown) [Example 91]
Incoming: Response body: label of entry with the larger pIC50; valid values I , II . # respond with the chosen item's label
Outgoing: I
(I: 9.01, II: 8.41)

P. CCOc1cc(-c2cc(C3COB(O)C3)cnc2C)ccc1OC (stereo not shown) [Example 52]
Q. CCCOc1cc(-c2cncc(C3COB(O)C3)c2)cnc1OC (single isomer, unassigned) [Example 18]
R. CCCOc1cc(-c2nc(CO)cc(C3COB(O)C3)n2)c(F)cc1OC (single isomer, unassigned; enantiomer 2) [Example 154]
Incoming: Order field: pIC50 | Direction: descending (largest first) Output spec: a listing of the labels in the requested order.
Outgoing: Q, P, R

* * *

Molecular target: PDE4B (aa 152-484, Uniprot ID Q07343) (Homo sapiens (Human))
Property measured: IC50 (nM)

| Molecule | Unit symbol | Result |
| --- | --- | --- |
| CCCOc1cc(-c2cncc(C3COB(O)C3)c2)c(F)cc1OC (single isomer, unassigned) | nM | 0.97 |
| COc1ccc(-c2cncc(C3COB(O)C3)c2)cc1OCCCO (single isomer, unassigned) | nM | 1.26 |
| CCCOc1cc(-c2cncc(C3COB(O)C3)c2)ncc1OC (stereo not drawn) | nM | 2.02 |
| CCOc1cc(-c2cncc([C@@H]3COB(O)C3)c2)ccc1OC | nM | 1.14 |
| CCOc1cc(-c2cc(C3COB(O)C3)cnc2C)ccc1OC (stereo not drawn) | nM | 9.25 |
| COc1ccc(-c2cncc(C3COB(O)C3)c2)c(F)c1OC (stereo not drawn) | nM | 2.41 |

a. CCOc1ccc(-c2cncc(C3COB(O)C3)c2)cc1OCC (stereo not drawn) [Example 96]
b. CCCOc1cc(-c2cccc(C3COB(O)C3)c2)ccc1OC (single isomer, unassigned)
c. CCOc1cc(-c2cncc(C3COB(O)C3)c2)cc(Cl)c1OC (single isomer, unassigned)
d. CCCOc1cc(-c2nc(OCCO)cc(C3COB(O)C3)n2)ccc1OC (single isomer, unassigned; enantiomer 1)
Incoming: Order field: IC50 | Direction: descending (largest first) Output spec: a listing of the labels in the requested order.
Outgoing: b, a, c, d
(b: 4.33 nM, a: 1.69 nM, c: 0.97 nM, d: 0.34 nM)

I. CCCOc1nc(-c2cc(C3COB(O)C3)cnc2C)ccc1OC (single isomer, unassigned; enantiomer 1)
II. CCCOc1cc(-n2ccc(C3COB(O)C3)n2)ccc1OC (stereo not drawn)
Incoming: // compare: I vs II , metric IC50, want the smaller # respond with the chosen item's label
Outgoing: I

I. COc1cc(-c2ccc(OC)c(OC)c2)cc(C2COB(O)C2)c1 (stereo not drawn)
II. CCCOc1nc(-c2cncc(C3COB(O)C3)c2)ccc1OC (stereo not drawn) [Example 60]
III. COc1cc(-c2cccc(C3COB(O)C3)c2)cc(C#N)c1OC (stereo not drawn)
IV. COc1cnc(-c2cccc(C3COB(O)C3)c2)cc1OC (stereo not drawn)
Incoming: // smallest IC50 at index 0, largest at the end Output spec: a listing of the labels in the requested order.
Outgoing: II, III, I, IV
(II: 0.34 nM, III: 1.8 nM, I: 2.96 nM, IV: 8.57 nM)

A. CCOc1cc(-c2cncc(C3COB(O)C3)c2C(F)F)ccc1OC (single isomer, unassigned) [Example 140]
B. CCOc1cc(-c2cncc(C3COB(O)C3)c2C(F)F)ccc1OC (single isomer, unassigned) [Example 139]
C. CCCOc1cc(-c2cc(C3COB(O)C3)cnc2C)cnc1OC (stereo not drawn) [Example 218]
D. CCOc1cc(-c2nc(OC)cc(C3COB(O)C3)n2)ccc1OC (single isomer, unassigned; enantiomer 2) [Example 186]
Incoming: Order field: IC50 | Direction: descending (largest first) Output spec: a listing of the labels in the requested order.
Outgoing: D, A, C, B
(D: 4.43 nM, A: 2.7 nM, C: 1.45 nM, B: 0.25 nM)
